- tested_on: recombinant AplaCSP4 (Agrilus planipennis chemosensory protein 4) (Agrilus planipennis, UniProt A0A1W4XLL0)
- Sequence (A0A1W4XLL0 entry or part of it): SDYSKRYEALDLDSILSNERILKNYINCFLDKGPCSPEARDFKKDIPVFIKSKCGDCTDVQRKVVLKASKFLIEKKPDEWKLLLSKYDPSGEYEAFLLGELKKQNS
- assay_name: biochemical
- Type: binding
- conditions_used: pH 7.4, read-out: Competitive binding capability(%), ligand concentration 12 μM; three replicate columns; 100 at 0 μM
reported_endpoint: activity at 12 µM (%)
Please respond with the number in % and leave the unit unwritten.

Observe how each entry below is paired with its result.
Looking for the measured activity at 12 µM of CC(=O)/C=C/C1=C(C)CCCC1(C)C [β-Ionone] , can you help? 34.6

Looking for the measured activity at 12 µM of CCCCCCCCCCCC [Dodecane] , can you help? 25.8

Looking for the measured activity at 12 µM of CCCCCCCCCC [Decane] , can you help? 38.2

Kindly consider the entry below.
Looking for the measured activity at 12 µM of CCCCCCCC [n-Octane] , can you help? 31.4
